molecular target: Human Cav 2.2 channels (Homo sapiens, UniProt Q00975); assay: Fluorescent assay for CaV2.2 channels using potassium depolarization (VIPR/FLIPR); type: cell-based; conditions: FLIPR data; inactivated state; read-out: CAv2.2 IC50 Inact.
Sequence (Q00975 whole entry): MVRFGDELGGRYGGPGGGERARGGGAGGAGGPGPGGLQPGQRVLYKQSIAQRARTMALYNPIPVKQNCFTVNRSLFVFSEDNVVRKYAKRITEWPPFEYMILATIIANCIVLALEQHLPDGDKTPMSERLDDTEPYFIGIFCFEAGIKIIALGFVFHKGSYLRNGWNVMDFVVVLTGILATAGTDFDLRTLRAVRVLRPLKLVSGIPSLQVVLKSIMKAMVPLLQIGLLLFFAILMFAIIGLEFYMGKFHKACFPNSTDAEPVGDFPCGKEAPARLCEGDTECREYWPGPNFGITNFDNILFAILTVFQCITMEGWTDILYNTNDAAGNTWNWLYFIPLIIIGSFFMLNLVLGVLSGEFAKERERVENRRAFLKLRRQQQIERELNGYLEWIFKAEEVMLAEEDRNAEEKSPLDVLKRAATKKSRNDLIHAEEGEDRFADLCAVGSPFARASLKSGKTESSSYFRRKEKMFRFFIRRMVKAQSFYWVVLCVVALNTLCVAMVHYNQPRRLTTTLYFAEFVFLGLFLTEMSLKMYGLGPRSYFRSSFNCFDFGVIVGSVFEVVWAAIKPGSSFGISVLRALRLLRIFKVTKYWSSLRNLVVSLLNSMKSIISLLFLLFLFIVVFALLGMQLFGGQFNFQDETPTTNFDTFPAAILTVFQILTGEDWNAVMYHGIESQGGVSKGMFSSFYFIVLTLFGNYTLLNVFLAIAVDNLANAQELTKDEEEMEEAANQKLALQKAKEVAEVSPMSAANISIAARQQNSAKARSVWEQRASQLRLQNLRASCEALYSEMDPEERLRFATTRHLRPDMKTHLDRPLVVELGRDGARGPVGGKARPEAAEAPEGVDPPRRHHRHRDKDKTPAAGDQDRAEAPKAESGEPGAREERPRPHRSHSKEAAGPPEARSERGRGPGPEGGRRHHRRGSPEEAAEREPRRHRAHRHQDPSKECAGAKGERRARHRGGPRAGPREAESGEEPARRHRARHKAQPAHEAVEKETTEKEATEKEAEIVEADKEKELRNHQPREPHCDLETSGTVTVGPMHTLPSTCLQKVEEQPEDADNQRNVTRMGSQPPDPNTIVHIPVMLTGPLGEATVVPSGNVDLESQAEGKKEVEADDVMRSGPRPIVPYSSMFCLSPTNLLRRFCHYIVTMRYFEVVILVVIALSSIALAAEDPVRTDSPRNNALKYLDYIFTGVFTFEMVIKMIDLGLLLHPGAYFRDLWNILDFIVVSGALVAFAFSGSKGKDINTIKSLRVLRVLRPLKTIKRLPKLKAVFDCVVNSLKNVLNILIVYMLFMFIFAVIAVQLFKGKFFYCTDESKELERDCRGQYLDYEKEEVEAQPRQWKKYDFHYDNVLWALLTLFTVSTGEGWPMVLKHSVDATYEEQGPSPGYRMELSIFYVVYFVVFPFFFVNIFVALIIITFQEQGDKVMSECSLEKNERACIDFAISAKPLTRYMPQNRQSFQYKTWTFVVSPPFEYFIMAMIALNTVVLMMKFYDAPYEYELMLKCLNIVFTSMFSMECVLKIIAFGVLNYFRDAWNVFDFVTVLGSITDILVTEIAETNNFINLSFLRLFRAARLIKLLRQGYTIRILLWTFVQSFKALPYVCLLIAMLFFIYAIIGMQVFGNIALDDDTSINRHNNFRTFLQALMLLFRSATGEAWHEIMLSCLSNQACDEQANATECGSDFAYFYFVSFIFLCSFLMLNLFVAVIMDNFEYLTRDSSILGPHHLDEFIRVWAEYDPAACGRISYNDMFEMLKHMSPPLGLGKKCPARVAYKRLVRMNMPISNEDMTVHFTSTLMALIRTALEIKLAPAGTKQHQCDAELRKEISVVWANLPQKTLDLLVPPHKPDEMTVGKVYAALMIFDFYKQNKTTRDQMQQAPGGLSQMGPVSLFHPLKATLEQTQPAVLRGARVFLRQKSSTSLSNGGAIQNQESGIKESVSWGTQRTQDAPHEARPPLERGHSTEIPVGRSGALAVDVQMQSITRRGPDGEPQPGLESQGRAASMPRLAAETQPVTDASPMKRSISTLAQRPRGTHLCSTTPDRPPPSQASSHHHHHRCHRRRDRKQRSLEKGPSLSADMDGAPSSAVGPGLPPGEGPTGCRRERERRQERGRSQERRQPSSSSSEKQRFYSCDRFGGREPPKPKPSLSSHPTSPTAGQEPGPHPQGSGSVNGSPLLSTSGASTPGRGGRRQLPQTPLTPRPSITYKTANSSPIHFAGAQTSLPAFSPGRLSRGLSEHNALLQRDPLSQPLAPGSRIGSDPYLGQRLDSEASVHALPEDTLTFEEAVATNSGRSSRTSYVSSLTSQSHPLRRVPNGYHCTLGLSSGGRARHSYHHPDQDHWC
Sequence (P54289 25-1103 partner): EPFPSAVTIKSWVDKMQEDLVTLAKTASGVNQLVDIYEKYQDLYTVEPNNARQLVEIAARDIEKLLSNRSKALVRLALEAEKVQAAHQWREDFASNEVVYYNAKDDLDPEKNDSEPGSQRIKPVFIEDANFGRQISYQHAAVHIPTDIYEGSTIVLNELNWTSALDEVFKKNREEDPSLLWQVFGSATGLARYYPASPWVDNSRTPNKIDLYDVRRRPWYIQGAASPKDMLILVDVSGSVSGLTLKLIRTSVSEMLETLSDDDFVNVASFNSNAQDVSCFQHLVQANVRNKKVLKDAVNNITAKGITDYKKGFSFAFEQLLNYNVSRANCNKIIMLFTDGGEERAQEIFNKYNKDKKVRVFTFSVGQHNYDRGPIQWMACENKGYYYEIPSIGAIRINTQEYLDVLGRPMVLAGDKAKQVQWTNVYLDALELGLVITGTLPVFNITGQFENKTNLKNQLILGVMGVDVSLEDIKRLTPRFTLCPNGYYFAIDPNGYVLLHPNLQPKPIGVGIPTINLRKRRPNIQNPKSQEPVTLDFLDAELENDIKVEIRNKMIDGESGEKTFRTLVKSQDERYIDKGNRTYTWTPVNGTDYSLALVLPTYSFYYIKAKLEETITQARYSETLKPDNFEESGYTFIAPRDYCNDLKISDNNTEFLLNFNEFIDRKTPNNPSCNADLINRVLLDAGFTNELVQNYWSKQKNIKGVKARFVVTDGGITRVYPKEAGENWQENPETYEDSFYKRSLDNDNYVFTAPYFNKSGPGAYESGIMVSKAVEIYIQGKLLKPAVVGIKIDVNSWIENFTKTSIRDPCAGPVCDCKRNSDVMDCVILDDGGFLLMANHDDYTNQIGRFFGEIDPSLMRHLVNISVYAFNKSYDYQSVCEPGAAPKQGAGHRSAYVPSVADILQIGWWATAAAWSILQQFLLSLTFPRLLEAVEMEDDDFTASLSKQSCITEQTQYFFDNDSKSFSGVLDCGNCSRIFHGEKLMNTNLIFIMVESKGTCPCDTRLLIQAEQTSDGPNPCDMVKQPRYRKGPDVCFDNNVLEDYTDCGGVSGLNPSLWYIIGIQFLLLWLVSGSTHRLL
Sequence (P54284 whole entry partner): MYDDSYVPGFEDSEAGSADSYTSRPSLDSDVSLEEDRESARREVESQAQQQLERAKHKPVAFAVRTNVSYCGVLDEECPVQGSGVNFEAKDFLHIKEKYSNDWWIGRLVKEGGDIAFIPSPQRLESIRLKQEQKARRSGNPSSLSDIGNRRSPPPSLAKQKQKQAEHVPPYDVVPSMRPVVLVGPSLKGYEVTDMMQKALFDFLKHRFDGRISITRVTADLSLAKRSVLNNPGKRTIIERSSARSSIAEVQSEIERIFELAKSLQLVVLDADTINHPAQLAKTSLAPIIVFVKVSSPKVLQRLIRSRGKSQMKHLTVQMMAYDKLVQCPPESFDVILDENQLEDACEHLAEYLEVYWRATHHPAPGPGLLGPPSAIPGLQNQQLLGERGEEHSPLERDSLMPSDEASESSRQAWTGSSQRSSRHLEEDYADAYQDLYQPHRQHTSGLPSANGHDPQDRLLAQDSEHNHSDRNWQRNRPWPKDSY
observable: pIC50
When answering, recall that pIC50 equals minus log10 of the concentration in mol/L, and write that number alone.

Record excerpt, results attached:
# compound, pIC50
records = [
    ("O=C(NC[C@H]1C[C@H](S(=O)(=O)c2cc(F)cc(C(F)(F)F)c2)C1)c1ccc(OCC(F)(F)F)nc1 [Compound 706]", 6.07),
    ("O=C(NC[C@H]1C[C@H](S(=O)(=O)c2cccc(OC(F)(F)F)c2)C1)c1cnc(C(F)(F)F)nc1 [Compound 696]", 6.03),
    ("CC(C)([C@H]1C[C@H](NS(=O)(=O)c2ccc(C(F)(F)F)cc2Cl)C1)S(=O)(=O)c1cccc(C(F)(F)F)c1 [Compound 666]", 6.19),
    ("CC(C)([C@H]1C[C@@H](Nc2ccnc(C(F)(F)F)n2)C1)S(=O)(=O)c1cccc(OC(F)(F)F)c1 [Compound 646]", 5.99),
    ("CC(C)([C@H]1C[C@@H](NC(=O)c2cc(C(F)(F)F)n[nH]2)C1)S(=O)(=O)c1cc(F)cc(C(F)(F)F)c1 [Compound 587]", 6.14),
]

Give pIC50 for CC(C)(C1CC(CNC(=O)c2cc(C(F)(F)F)n[nH]2)C1)S(=O)(=O)c1cccc(C(F)(F)F)c1 (stereo not shown) [Compound 614] 6.31

Name the recorded pIC50 of the compound listed here: CC(C)([C@H]1C[C@H](CNc2ccc(F)c(Cl)c2)C1)S(=O)(=O)c1cccc(C(F)(F)F)c1 [Compound 750] 6.77
